pIC50: −log10 of the molar value.
Multi-source literature compilation: pIC50 on Human Factor XIIa (Homo sapiens).

Per the reported Human Factor XIIa (Homo sapiens) data, `CC(C)N1CCC(COc2ccc(CNc3ccc4c(N)nccc4c3)cn2)CC1` has pIC50 of 6.52 to 7.00

Test item `Cc1cc(CNC(=O)c2nn(-c3cccc(Cl)c3)c3c2CCN(c2ccc4c(c2)C(=O)N(CCCO)CC4)C3=O)nn1C` ; Human Factor XIIa (Homo sapiens); reported pIC50 was 7.00 to 8.00

The molecule `CN1CCC(COc2ccc(CCc3cccc4c(N)nccc34)cn2)CC1` on Human Factor XIIa (Homo sapiens): pIC50 was 5.00 to 5.52

Item `CNc1cc(NCc2ccc(NCC3CCN(C)CC3)nc2)ccn1` ; assay system Human Factor XIIa (Homo sapiens); pIC50 reported as 5.00 to 5.52

GET /values?item= CN1CC2C(COc3cc(CNc4ccc5c(N)nccc5c4)ccn3)C2C1 (stereo not drawn) &system= Human Factor XIIa (Homo sapiens) returns pIC50: 6.52 to 7.00

pIC50 value, target or system Human Factor XIIa (Homo sapiens), for `Cc1cc(CNC(=O)c2nn(-c3cccc(Cl)c3)c3c2CCN(c2ccc4c(c2)C(=O)N(CC(=O)O)CC4)C3=O)nn1C` : 6.00 to 6.52

Param item: `COc1cc(CNC(=O)c2nn(-c3cccc(Cl)c3)c3c2CCN(c2ccc4c(c2)C(=O)N(C)CC4)C3=O)nn1C` ; param system: Human Factor XIIa (Homo sapiens); output pIC50: 6.52 to 7.00

Item `CNc1cc(NCc2ccc(N3CCn4c(nnc4C(F)F)C3)nc2)ccn1` was tested on Human Factor XIIa (Homo sapiens); the reported pIC50 is 4.40 to 5.00

Field pIC50 (Human Factor XIIa (Homo sapiens)), entry `CN1CCOc2ccc(N3CCc4c(C(=O)N[C@@H]5CCOC5)nn(-c5cccc(Cl)c5F)c4C3=O)cc2C1=O` : 7.00 to 8.00

Form: item `CN1CCC(CNc2ccc(CNc3cc(C(=O)O)nc4[nH]ccc34)cn2)CC1` ; test system Human Factor XIIa (Homo sapiens); pIC50: 4.40 to 5.00

Note to self: pIC50 of `CN1CCC(COc2cc(CNc3cccc4c(N)nccc34)cc(C(F)(F)F)n2)CC1` with Human Factor XIIa (Homo sapiens) was 6.00 to 6.52

# lookup: `COCc1cc(CNC(=O)c2nn(-c3cccc(Cl)c3)c3c2CCN(c2ccc4c(c2)CN(CCO)CC4)C3=O)[nH]n1` on Human Factor XIIa (Homo sapiens), pIC50 = 6.52 to 7.00

Considering CC(C)N1C[C@H]2C[C@@H]1CN2CCc1ccc(CNc2cccc3c(N)nccc23)c(F)c1 (stereo in doubt) , its pIC50 with Human Factor XIIa (Homo sapiens) was recorded as 6.52 to 7.00

Log: Human Factor XIIa (Homo sapiens), molecule `Cc1cc(CNC(=O)c2nn(-c3cccc(Cl)c3)c3c2CCN(c2ccc4c(c2)C(=O)N(C)CCC4)C3=O)nn1C` , pIC50 = 6.52 to 7.00

Form field, pIC50 with Human Factor XIIa (Homo sapiens), item `CCNC(=O)c1nn(-c2cccc(Cl)c2)c2c1CCN(c1cccc(N3CCN(C)C3=O)c1)C2=O` : 5.52 to 6.00

Measured pIC50 (Human Factor XIIa (Homo sapiens)), entry `Nc1nccc2c(NCc3ccc(N4CCn5c(nnc5C(F)(F)F)C4)nc3C(F)(F)F)cccc12` : 5.52 to 6.00

Considering `CN1CCc2ccc(N3CCc4c(C(=O)N[C@@H]5COC[C@H]5O)nn(-c5cccc(Cl)c5)c4C3=O)cc2C1=O` , its pIC50 with Human Factor XIIa (Homo sapiens) was recorded as 6.00 to 6.52

# `Cc1cc(CNC(=O)c2nn(-c3cccc(Cl)c3)c3c2CCN(c2ccc4c(c2)C(=O)N(CCO)[C@@H](C)CO4)C3=O)nn1C` with Human Factor XIIa (Homo sapiens): pIC50 is 6.00 to 6.52

# `CC(=O)N1CC2(COc3ccn(C)c(=O)c3)CC1(CNc1cccc3c(N)nccc13)C2` with Human Factor XIIa (Homo sapiens): pIC50 is 7.00 to 8.00

Form: item `CC(=O)N1CCC(OCc2ccc(CNc3ccc4c(N)nccc4c3)c(F)c2)CC1` ; test system Human Factor XIIa (Homo sapiens); pIC50: 6.00 to 6.52

The observed pIC50 for `Cc1cc(CNC(=O)c2nn(-c3cccc(Cl)c3)c3c2CCN(c2ccc4c(c2)CN(C)CC4)C3=O)[nH]n1` when tested with Human Factor XIIa (Homo sapiens) stands at 7.00 to 8.00

Response field pIC50 (Human Factor XIIa (Homo sapiens)) for item `Cc1ccc(OCC23CCOC(CNc4cccc5c(N)nccc45)(C2)C3)nc1` : 5.52 to 6.00

Param item: `C[C@@H](NC(=O)c1nn(-c2cccc(Cl)c2)c2c1CCN(c1ccc3c(c1)CN(CCO)CC3)C2=O)c1cccnc1` ; param system: Human Factor XIIa (Homo sapiens); output pIC50: 6.52 to 7.00

Summary: `COCc1nn(-c2cccc(Cl)c2)c2c1CCN(c1ccc3c(c1)C(=O)N(C)CC3)C2=O` , Human Factor XIIa (Homo sapiens), pIC50 = 5.52 to 6.00

Item: CN1CCc2ccc(N3CCc4c(C(=O)NCC5CCOC5)nn(-c5cccc(Cl)c5)c4C3=O)cc2C1=O (stereo not drawn) | System: Human Factor XIIa (Homo sapiens) | pIC50: 6.00 to 6.52

Human Factor XIIa (Homo sapiens) data for CC(=O)N1CC2CC1CC2COc1cc(CNc2cccc3c(N)nccc23)ccn1 (stereo not drawn) ; its pIC50: 5.52 to 6.00

I looked up `O=C(NCC1CC1)c1nn(-c2cccc(Cl)c2)c2c1CCN(c1ccc3c(c1)CN(CC1CCCC1)CC3)C2=O` and its pIC50 for Human Factor XIIa (Homo sapiens) was 6.00 to 6.52

Assay Human Factor XIIa (Homo sapiens), sample Nc1ncc(Cl)c2cc(NCc3ccc(N4CCn5nccc5C4CO)nc3)ccc12 (stereo not drawn) , pIC50 read: 5.00 to 5.52

Observed pIC50, Human Factor XIIa (Homo sapiens), `Cc1cnc2[nH]c(Cl)cc2c1NCc1ccc(NCC2CCN(C)CC2)nc1` : 5.00 to 5.52

Measured pIC50 for this entry `CCNC(=O)c1nn(-c2cccc(C#N)c2C)c2c1CCN(c1ccc3c(c1)C(=O)N(C)CC3)C2=O` on Human Factor XIIa (Homo sapiens): 4.40 to 5.00

---

Endpoint summary: IC50, system: Human Factor XIIa (Homo sapiens, UniProt P00748), multiple sources combined.

Measured IC50 for this entry `Cn1ccnc1CCCOc1ncc(CNc2cccc3c(N)nccc23)cn1` on Human Factor XIIa (Homo sapiens, UniProt P00748): 3 to 10 µM

The compound `CCNC(=O)c1nn(-c2cccc(Cl)c2)c2c1CCN(c1cccc(N3C(=O)CC[C@@H]3C)c1)C2=O` , tested on Human Factor XIIa (Homo sapiens, UniProt P00748), showed IC50 of 10 to 40 µM

Lab entry: Human Factor XIIa (Homo sapiens, UniProt P00748) assay, compound `CN1CCc2ccc(N3CCc4c(C(=O)NC5CCOCC5)nn(-c5cccc(Cl)c5)c4C3=O)cc2C1=O` , IC50 = 0.1 to 0.3 µM

Form field, IC50 with Human Factor XIIa (Homo sapiens, UniProt P00748), item `CN1CCC(COc2cc(CNc3nccc4c(N)ccnc34)ccn2)CC1` : 3 to 10 µM

So the reported IC50 for `Cc1cc2c(NCc3ccnc(OCC4CCN(C)CC4)c3)ccnc2[nH]1` , on Human Factor XIIa (Homo sapiens, UniProt P00748), turned out to be 1 to 3 µM

Considering `O=C(NCC1CC1)c1nn(-c2cccc(Cl)c2)c2c1CCN(c1ccc3c(c1)CN(CCF)CC3)C2=O` , its IC50 with Human Factor XIIa (Homo sapiens, UniProt P00748) was recorded as 0.1 to 0.3 µM

For `Nc1nccc2c(NCc3ccc(N4CCn5c(nnc5C(F)(F)F)C4)nc3)nccc12` on Human Factor XIIa (Homo sapiens, UniProt P00748), measured IC50 was 10 to 40 µM

Recorded IC50 for CN1CCC(COc2cc(CNc3cccc4c(N)nccc34)ccn2)CC1=O (centres unmarked) on Human Factor XIIa (Homo sapiens, UniProt P00748) was 0.3 to 1 µM

The compound `Nc1nccc2c(NCC34CC(CN5CCCC5=O)(CO3)C4)cccc12` , when measured on Human Factor XIIa (Homo sapiens, UniProt P00748), yielded IC50 of 10 to 40 µM

Entry `Nc1ncc(Cl)c2cc(NCc3ccc(CCN4CCOCC4)cc3F)ccc12` , tested on Human Factor XIIa (Homo sapiens, UniProt P00748), has a reported IC50 of 10 to 40 µM

// compound `CCN1CCc2c(COC)cc(N3CCc4c(C(=O)NCC5CC5)nn(-c5cccc(Cl)c5)c4C3=O)cc2C1` , assay Human Factor XIIa (Homo sapiens, UniProt P00748), IC50 value: 0.1 to 0.3 µM

Human Factor XIIa (Homo sapiens, UniProt P00748) data for Nc1nccc2c(N3CCC4(CC(OCc5ccn6ccnc6c5)C4)C3)cccc12 (centres unmarked) ; its IC50: 1 to 3 µM

Given the compound `O=C(NCc1ccoc1)c1nn(-c2cccc(Cl)c2)c2c1CCN(c1ccc3c(c1)CN(CCO)CC3)C2=O` and test system Human Factor XIIa (Homo sapiens, UniProt P00748), the measured IC50 is 0.1 to 0.3 µM

Entry Nc1nccc2cc(NCc3ccc(OCC4CCn5cc(C(F)(F)F)nc5C4)nc3)ccc12 (centres unmarked) : IC50 on Human Factor XIIa (Homo sapiens, UniProt P00748) = 1 to 3 µM

// compound `CN1CCc2ccc(N3CCc4c(C(=O)NCC5CC5)nn(-c5cncc(Cl)c5)c4C3=O)cc2C1=O` , assay Human Factor XIIa (Homo sapiens, UniProt P00748), IC50 value: 3 to 10 µM

Let me check: `CN1CCC(OCc2ccc(CN(C)c3ccc4cnccc4c3)cc2)CC1` , system Human Factor XIIa (Homo sapiens, UniProt P00748), measured IC50 is 0.3 to 1 µM

The compound `Nc1nccc2c(NCC34CC(COc5ccn6nncc6c5)(CCO3)C4)cccc12` , when measured on Human Factor XIIa (Homo sapiens, UniProt P00748), yielded IC50 of 1 to 3 µM
